Recorded inhibition, one value per entry.
Tested on: hexokinase 1 [Trypanosoma brucei]
assay-remarks: TbHK1 enzyme activity blockers – biochemical, G6PDH-coupled NADH absorbance, MLSCN library, primary screen (AID 1430)
experimental-setup: recombinant TbHK1, G6PDH-coupled NADH A340; at 10 µM; stronger effect = higher value
Out of some 220,000 compounds screened, about 240 (0.11%) were called active. For the sample, actives were picked, then their nearest neighbours and some compounds at random.
# output: bare number, implied unit %

Sample answers from the record:
- CCOC(=O)c1ccc(NNC(C)=O)c([N+](=O)[O-])c1: -2.98
- Fc1ccc(/C=N/Nc2nc(-c3cccnc3)nc3ccccc23)cc1: -55.8
- COc1cccc(/C=N/Nc2cc(C)nc(-c3ccccc3O)n2)c1O: -40

Shifting focus to the compound that follows.
# inhibition of `O=C(Nc1ccc(N2C(=O)c3cccc4cccc(c34)C2=O)cc1)c1ccc(N2CCCCC2)c([N+](=O)[O-])c1` = -9.23
